biological target: HLA-B*15:01; assay: IEDB peptide-MHC binding, purified MHC/competitive/fluorescence; filed as Kd, often an IC50 or EC50 that approximates it; bounds were set here for any values at or beyond the usual limits of such assays; details: source organism: Influenza A virus (A/Victoria/1968(H3N2))
outcome-measure: Kd

Item under review: `NMDKAVKLY` . Reported Kd? ≥ 20 µM

* * *

molecular target: HLA-B*40:01; experiment: IEDB peptide-MHC binding, purified MHC/direct/fluorescence; filed as Kd, often an IC50 or EC50 that approximates it; bounds were set here for any values at or beyond the usual limits of such assays; settings: source organism: Influenza A virus
outcome-measure: Kd (nM)
Answers are plain numbers, in nM.

Report Kd for `VQHPELTGL` tested on HLA-B*40:01. 136
